target: glucagon receptor; test: cell-based or functional assay
Numbered stars: 1 amine (or outer) side, 2 acyl side, 3 side chain; on linkers, the order of the positions; unused ones are H or OH. Square brackets hold non-standard residues; d marks the D form. Primed or numbered codes have the meaning given here. Side chains are listed from the residue outwards. Ends that are not written are not given here. * marks the point of attachment. 40K‑TE PEG = 40 kDa PEG covalently bound via thioether, formed by reaction of the free thiol of the peptide (Cys side chain) with an iodoacetic-functionalized PEG; 40K‑TE PEG(3) = 40 kDa PEG bound to the Cys thiol via a thioether, made by reacting the free-thiol peptide with iodoacetic-functionalised PEG; 40K‑TE PEG″ = 40 kDa PEG bound to Cys via thioether made from an iodoacetyl-functionalised PEG; EDTA amide = ethylenediaminetetraacetic acid amide, O=C(O)CN(CCN(CC(=O)O)CC(=O)*)CC(=O)O; 12K‑ME PEG = 12 kDa PEG bound via maleimido-thioether; γGlu = O=C(O)[C@H](CCC(=O)[*:2])N[*:1]; Desaminohistidyl = O=C(CCc1c[nH]cn1)*; Palmitoyl = CCCCCCCCCCCCCCCC(=O)*; Aib = CC(C)(N)C(=O)O
Under this convention, fulfilled denotes EC50 (nM) at glucagon receptor strictly below 0.6 nM and not fulfilled denotes EC50 (nM) at glucagon receptor at or above 0.6 nM.

For orientation, consider the following solved cases.
>>> df
                                     binder          label
0  HXQGTFTSDKSKYLDERAAQDFVQWLMDT (aib at 2; Lys 10 with γEγEC16; C-terminal amide) [peptide of SEQ ID NO: 61]      fulfilled
1  H[dS]QGTFTSDK(EDTA amide)SKYLDERAAQDFVQWLLDGGPSSGAPPPS-NH2 [peptide of SEQ ID NO: 55]  not fulfilled
2  H[dA]QGTFTSDK([γGlu-Palmitoyl])SKYLDERAAQDFVQWLLDT-NH2 [peptide of SEQ ID NO: 56]      fulfilled
3  [Desaminohistidyl][dS]QGTFTSDK([γGlu-Palmitoyl])SKYLDERAAQDFVQWLLDT-NH2 [peptide of SEQ ID NO: 20]      fulfilled
4  H[Aib]QGTFTSDYSKYLD[Aib]KRA[Aib]EFVC(40K‑TE PEG(3))WLLDGGPSSGAPPPS-NH2 [peptide of SEQ ID NO: 46]      fulfilled
5  H[Aib]QGTFTSDK([γGlu-γGlu-Palmitoyl])SKYLD[Aib]RAAQDFVQWLMDTK[dA]-OH [peptide of SEQ ID NO: 32]      fulfilled
6  H[Aib]QGTFTSDYSKYLDERRA[Aib]EFVC(40K‑TE PEG″)WLLDGGPSSGAPPPS-NH2 [peptide of SEQ ID NO: 35]  not fulfilled
7  H[Aib]QGTFTSDYSKYLDERRA[Aib]EFVC(40K‑TE PEG″)WLLDT-NH2 [peptide of SEQ ID NO: 14]      fulfilled
8  H[dS]QGTFTSDK([γGlu-Palmitoyl])SKYLDERAAQDFVQWLLDGRK-NH2 [peptide of SEQ ID NO: 28]      fulfilled
9  H[Aib]QGTFTSDYSKYLD[Aib]KRAKEFVQWLLC(40K‑TE PEG)T-OH [peptide of SEQ ID NO: 39]  not fulfilled

I'd appreciate it if you could check whether H[dS]QGTFTSDK([γGlu-Palmitoyl])SKYLDEQAAKEFIC(12K‑ME PEG)WLLDT-NH2 [peptide of SEQ ID NO: 43] has EC50 (nM) at glucagon receptor smaller than 0.6 nM.
fulfilled

I'd appreciate it if you could check whether H[Aib]QGTFTSDYSKYLDEKRA[Aib]EFV[Aib]WLLC(40K‑TE PEG)T-NH2 [peptide of SEQ ID NO: 42] has EC50 (nM) at glucagon receptor smaller than 0.6 nM.
not fulfilled

I'd appreciate it if you could check whether H[Aib]QGTFTSDYSKYLDEKRA[Aib]EFVC(40K‑TE PEG)WLLDT-NH2 [peptide of SEQ ID NO: 13] has EC50 (nM) at glucagon receptor smaller than 0.6 nM.
fulfilled

I'd appreciate it if you could check whether H[Aib]QGTFTSDYSKYLDEKRA[Aib]EFVC(40K‑TE PEG)WLL[Aib]T-NH2 [peptide of SEQ ID NO: 41] has EC50 (nM) at glucagon receptor smaller than 0.6 nM.
fulfilled

I'd appreciate it if you could check whether H[Aib]QGTFTSDYSKYLD[Aib]KRAKEFVQWLLDTC(40K‑TE PEG″)-NH2 [peptide of SEQ ID NO: 40] has EC50 (nM) at glucagon receptor smaller than 0.6 nM.
not fulfilled

I'd appreciate it if you could check whether H[dS]QGTFTSDK([γGlu-Palmitoyl])SKYLDERAAQDFVQWLLDGRG-NH2 [peptide of SEQ ID NO: 19] has EC50 (nM) at glucagon receptor smaller than 0.6 nM.
fulfilled

I'd appreciate it if you could check whether H[Aib]QGTFTSDYSKYLDEKRA[Aib]EFVC(40K‑TE PEG)WLL[Aib]GGPSSGAPPPS-NH2 [peptide of SEQ ID NO: 51] has EC50 (nM) at glucagon receptor smaller than 0.6 nM.
not fulfilled

FYI, the data here is from patent US20120329707A1.
